B1: SLC6A17 (parent)
chain: KAVEEELDAEDRPAWNSKLQYILA

# Variants of: B1
# experiment-description: protein stability index of a GFP-peptide fusion (GPS, HEK-293T) (PSI 1-6); higher = more stable;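 also: lentivirally expressed fusions sorted by FACS into six bins by GFP to DsRed ratio, PSI derived from sequencing read proportions per bin multiplied by bin number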
# test-parameters: c terminus: a fixed tail appended
Could you please report measured protein stability index for the items listed next?
Numbers only.

>  <mutation-list>
A2E

>  <protein stability index>
1.96

$$$$
>  <mutation-list>
L23Y

>  <protein stability index>
3.01

$$$$
>  <mutation-list>
D8K

>  <protein stability index>
2.93

$$$$

Your task in this section: give protein stability index for each listed record.
1. I22V
2. A9I

[3.04, 2.02]
